This collection of values is drawn from paper PMC10608985.

tested on: α1-acid glycoprotein (AGP); assay: HPLC on immobilized AGP column, affinity and % plasma–protein binding; assay type: in vitro ADME, human; settings: retention on AGP column; 50 mM ammonium acetate pH 7.4 / propan-2-ol 85/15 (v/v)
OUTCOME MEASURE: log k AGP

Please review the entries below; each comes with its answer.
MOL SMILES: O=C(COc1ccccc1)NNC(=S)Nc1cccc(Br)c1
OUTCOME MEASURE: log k AGP
RECORDED MEASUREMENT: 0.5881
//
MOL SMILES: CSc1ccc(NC(=S)NNC(=O)COc2ccccc2)cc1
OUTCOME MEASURE: log k AGP
RECORDED MEASUREMENT: 0.5548
//
MOL SMILES: O=C(COc1ccccc1)NNC(=S)Nc1ccc(I)cc1
OUTCOME MEASURE: log k AGP
RECORDED MEASUREMENT: 0.7465
//
MOL SMILES: O=C(COc1ccccc1)NNC(=S)Nc1ccccc1
OUTCOME MEASURE: log k AGP
RECORDED MEASUREMENT: 0.2567
//
MOL SMILES: O=C(COc1ccccc1)NNC(=S)Nc1cccc2ccccc12
OUTCOME MEASURE: log k AGP
RECORDED MEASUREMENT: 0.6494

A. O=C(COc1ccccc1)NNC(=S)Nc1ccc(Cl)c(Cl)c1
B. O=C(COc1ccccc1)NNC(=S)Nc1ccc(F)cc1
C. O=C(COc1ccccc1)NNC(=S)Nc1ccc(Cl)cc1
Ask: Output the entries ranked by log k AGP from maximum down to minimum. To answer, write out the labels according to the requested order.
Reply: A, C, B

###

Test: HPLC lipophilicity on cholesterol (Chol) stationary phase
Assay type: physicochemical
Details: slope of Soczewiński–Wachtmeister equation; MeOH/20 mM acetate buffer, pH 7.4
Protocol: For the evaluation of the compounds the following stationary phases were used: C-18; biomimetic, IAM; cholesterol (Chol); immobilized proteins HSA and AGP. […] HPLC measurements were performed using a liquid chromatograph Knauer (Knauer, Berlin, Germany) with a dual pump, a 20 µL simple injection valve, and a UV–visible detector. The compounds were detected under UV light at 280 nm at room temperature. […]
OUTCOME MEASURE: -S Chol

Please review the entries below; each comes with its answer.
MOL SMILES: CSc1ccc(NC(=S)NNC(=O)COc2ccccc2)cc1
RECORDED MEASUREMENT: 5.0386
--
MOL SMILES: O=C(COc1ccccc1)NNC(=S)Nc1cccc2ccccc12
RECORDED MEASUREMENT: 5.0400
--
MOL SMILES: O=C(COc1ccccc1)NNC(=S)Nc1ccc(Cl)cc1Cl
RECORDED MEASUREMENT: 5.4505
--
MOL SMILES: O=C(COc1ccccc1)NNC(=S)Nc1cccc(F)c1
RECORDED MEASUREMENT: 4.3726
--
MOL SMILES: O=C(COc1ccccc1)NNC(=S)Nc1ccccc1
RECORDED MEASUREMENT: 4.0307

P. O=C(COc1ccccc1)NNC(=S)Nc1cccc(I)c1
Q. O=C(COc1ccccc1)NNC(=S)Nc1ccccc1F
Ask: Among P and Q , whose measured -S Chol is the smaller figure? Field: selected label. Fill in the label of the entry you choose.
Reply: Q
